The measurements presented in this section are drawn from patent US20260092071A1.

# Measured On: SMARCA4 (Homo sapiens)
# Sequence (P51532 whole entry): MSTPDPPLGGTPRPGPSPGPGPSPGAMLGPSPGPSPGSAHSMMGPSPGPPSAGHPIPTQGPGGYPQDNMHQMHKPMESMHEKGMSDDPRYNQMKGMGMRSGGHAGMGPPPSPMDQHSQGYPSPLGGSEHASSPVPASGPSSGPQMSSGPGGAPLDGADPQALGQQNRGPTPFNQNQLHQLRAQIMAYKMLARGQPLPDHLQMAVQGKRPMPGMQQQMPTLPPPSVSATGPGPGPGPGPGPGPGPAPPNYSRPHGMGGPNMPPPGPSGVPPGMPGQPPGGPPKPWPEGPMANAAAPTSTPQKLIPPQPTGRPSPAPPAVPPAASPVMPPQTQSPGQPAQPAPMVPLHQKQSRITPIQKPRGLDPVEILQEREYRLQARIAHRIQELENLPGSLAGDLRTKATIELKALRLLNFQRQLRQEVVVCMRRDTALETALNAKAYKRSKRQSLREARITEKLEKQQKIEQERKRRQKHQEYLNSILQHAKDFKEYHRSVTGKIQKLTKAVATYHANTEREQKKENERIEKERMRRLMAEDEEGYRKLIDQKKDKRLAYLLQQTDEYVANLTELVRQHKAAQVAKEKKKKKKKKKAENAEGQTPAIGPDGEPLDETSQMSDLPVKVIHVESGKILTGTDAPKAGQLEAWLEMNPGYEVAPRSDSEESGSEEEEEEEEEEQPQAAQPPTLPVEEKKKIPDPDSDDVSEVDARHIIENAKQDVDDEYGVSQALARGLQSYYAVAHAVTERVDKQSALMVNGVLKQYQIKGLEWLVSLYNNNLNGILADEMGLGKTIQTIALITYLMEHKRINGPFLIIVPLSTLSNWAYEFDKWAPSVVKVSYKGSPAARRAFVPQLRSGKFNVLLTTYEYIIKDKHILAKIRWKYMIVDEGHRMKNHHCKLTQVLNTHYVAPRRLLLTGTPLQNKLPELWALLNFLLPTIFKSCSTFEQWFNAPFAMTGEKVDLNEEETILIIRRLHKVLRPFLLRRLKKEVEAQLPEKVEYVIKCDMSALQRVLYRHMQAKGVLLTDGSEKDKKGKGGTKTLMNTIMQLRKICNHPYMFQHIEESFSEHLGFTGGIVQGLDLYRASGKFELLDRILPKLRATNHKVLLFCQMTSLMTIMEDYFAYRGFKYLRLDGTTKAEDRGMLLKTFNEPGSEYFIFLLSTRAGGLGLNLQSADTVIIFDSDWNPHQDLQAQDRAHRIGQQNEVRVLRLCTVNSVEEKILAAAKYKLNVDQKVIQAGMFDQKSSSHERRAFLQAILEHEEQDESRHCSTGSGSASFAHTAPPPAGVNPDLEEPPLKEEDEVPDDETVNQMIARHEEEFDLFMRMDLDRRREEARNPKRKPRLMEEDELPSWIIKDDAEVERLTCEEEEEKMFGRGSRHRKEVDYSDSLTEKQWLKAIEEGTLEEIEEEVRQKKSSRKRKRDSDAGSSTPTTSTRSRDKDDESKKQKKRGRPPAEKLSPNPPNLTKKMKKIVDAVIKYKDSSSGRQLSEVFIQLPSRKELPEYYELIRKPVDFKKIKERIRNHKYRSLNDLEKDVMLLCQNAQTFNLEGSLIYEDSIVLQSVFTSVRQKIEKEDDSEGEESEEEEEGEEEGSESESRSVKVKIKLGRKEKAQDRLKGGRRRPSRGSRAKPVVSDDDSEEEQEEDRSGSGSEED
# Protocol Details: HiBiT assay for protein degradation, Hela SMARCA4-HiBiT cells (A series)
# Format: cell-based
# Set-up: fuse HiBiT to the carboxy terminus of SMARCA2 (Promega CS302365) or SMARCA4 (Promega CS3023225); host or cells: HeLa (CRISPR/Cas9 HiBiT knock-in)
# Cond: Hela SMARCA4-HiBiT cells, 24 hours treatment; read-out: SMARC A4 Hela HiBit DC50
Measured Property: DC50

Answered examples (3):
Consider the molecule shown here: Cc1ncsc1-c1ccc([C@H](CN2CC(C)(F)C2)NC(=O)[C@@H]2C[C@@H](O)CN2C(=O)[C@@H](n2cc([C@H]3CC[C@H](CN4CCC(c5ccc6c(c5)-n5c(nc(=O)c7c(Cl)cccc75)C65CCCCC5)CC4)CC3)nn2)C(C)(C)C)cc1 [Compound A74] What is its recorded DC50? > 1 µM

Consider the molecule shown here: Cc1ncsc1-c1ccc([C@H](CN2CCOCC2)NC(=O)[C@@H]2C[C@@H](O)CN2C(=O)[C@@H](n2cc([C@H]3CC[C@H](CN4CCC(c5ccc6c(c5)-n5c(nc(=O)c7c(Cl)cccc75)C6(C)C)CC4)CC3)nn2)C(C)(C)O)cc1 [Compound A159] What is its recorded DC50? > 1 µM

Consider the molecule shown here: Cc1ncsc1-c1ccc([C@H](CN2CCC(C(=O)O)CC2)NC(=O)[C@@H]2C[C@@H](O)CN2C(=O)[C@@H](n2cc([C@H]3CC[C@H](CN4CCC(c5ccc6c(c5)-n5c(nc(=O)c7c(Cl)cccc75)C65CCCCC5)CC4)CC3)nn2)C(C)(C)C)cc1 [Compound A156] What is its recorded DC50? > 1 µM

Moving on to another molecule below.
Consider the molecule shown here: Cc1ncsc1-c1ccc([C@H](C)NC(=O)[C@@H]2C[C@@H](O)CN2C(=O)[C@@H](NC(=O)CCCCN2CCC(c3ccc4c(c3)C3(CCCCC3)c3nc(=O)c5c(Cl)cccc5n3-4)CC2)C(C)(C)C)cc1 [Compound A8] What is its recorded DC50? > 1 µM
